Experiment: small-molecule binders of probe aNOTCH3, primary screen, biochemical, small-molecule microarray, 635/667 nm fluorescence (AID 1120);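 further: probe is a biotin-tagged antibody raised against NOTCH3 rather than NOTCH3 protein; score merges spot fluorescence near 667 nm with spot signal to noise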
Conditions: higher = more signal
Param threshold (0.02) applies to composite z-score; output yes when value >= threshold, no when value < threshold.

Take a look at these entries with their results.
>>> group_label("COC(=O)[C@@]1(Cc2ccc(F)cc2)[C@H]2c3cc(C(=O)N4CCCC4)n(CCO)c3C[C@H]2CN1C(=O)c1ccccc1")
"yes"
>>> group_label("CC(C)C[C@H]1NC(=O)[C@H](Cc2ccccc2)NC(=O)[C@@]23C(=O)N[C@@H](Cc4ccccc4)C2[C@H](C)[C@@]2(C)O[C@H]2C3/C=C/C/C=C\\CNC1=O (stereo partly drawn)")
"no"
>>> group_label("O=C1NC(=O)C2C1C=CC(C(O)c1cccc(O)c1)N2Nc1ccc(Cl)cc1Cl (stereo not drawn)")
"no"

Entry `COC(=O)[C@@]1(CCS(=O)(=O)c2ccccc2)N=C(c2ccc(OCCCO)cc2)O[C@H]1c1ccccc1N=[N+]=[N-]` : is its composite z-score no less than 0.02?
yes

Next compound up: `CCOC(=O)C[C@H]1[C@H](OC(=O)c2ccc(-c3ccccc3)cc2)[C@@H](NC(=O)c2ccc3ccccc3c2)c2cc(OCCCO)ccc2N1C(=O)c1ccccc1`
yes

Source listed as PubChem BioAssay.
